# studySystem: UniProtKB P21589
# Sequence (P21589 27-547): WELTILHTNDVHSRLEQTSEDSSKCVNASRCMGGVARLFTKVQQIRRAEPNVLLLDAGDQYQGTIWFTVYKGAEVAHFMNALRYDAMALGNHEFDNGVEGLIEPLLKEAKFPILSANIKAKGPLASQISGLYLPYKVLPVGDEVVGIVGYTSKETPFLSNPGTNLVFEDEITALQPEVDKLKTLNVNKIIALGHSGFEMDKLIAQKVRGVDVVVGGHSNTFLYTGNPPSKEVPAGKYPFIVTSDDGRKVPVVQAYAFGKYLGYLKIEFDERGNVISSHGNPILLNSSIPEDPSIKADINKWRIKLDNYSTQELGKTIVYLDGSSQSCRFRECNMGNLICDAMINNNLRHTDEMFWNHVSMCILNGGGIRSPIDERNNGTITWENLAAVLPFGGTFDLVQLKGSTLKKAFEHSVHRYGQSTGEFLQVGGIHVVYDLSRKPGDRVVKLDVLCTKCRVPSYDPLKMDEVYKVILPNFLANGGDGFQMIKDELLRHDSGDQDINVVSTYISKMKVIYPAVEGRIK
endpointLabel: IC50 (nM)
Answers are plain numbers, in nM.

What value of IC50 has been recorded for this entry: Nc1ncnc2c1ncn2[C@@H]1O[C@H](COP(=O)(O)CP(=O)(O)O)[C@@H](O)[C@H]1O [AMPCP]
3.8
